Biological target: T1, Secreted Protein, Acidic, Rich in Cysteines (SPARC) (UniProt P09486 18-303)
T1 construct: also called osteonectin; SPARC protein
T1 sequence (looked up): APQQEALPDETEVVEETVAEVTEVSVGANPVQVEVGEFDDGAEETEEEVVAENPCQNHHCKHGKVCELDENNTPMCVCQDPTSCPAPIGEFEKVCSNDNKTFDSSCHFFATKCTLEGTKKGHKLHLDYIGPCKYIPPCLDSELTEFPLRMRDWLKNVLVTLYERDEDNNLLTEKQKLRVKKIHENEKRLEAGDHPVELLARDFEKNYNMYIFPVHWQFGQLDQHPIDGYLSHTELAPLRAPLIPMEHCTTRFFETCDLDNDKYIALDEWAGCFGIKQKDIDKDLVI
Test: concentration-dependent ELISA on SPARC
Task for the reader: assign each of the following binders its reported Kd.
One number for each entry, in nM.

YTRLHHWIPPQR (12-mer from the Ph.D.-12 phage library; The peptide was cloned into pFUSE-hIgG1-Fc2 and expressed as the PD 15-Fc fusion; also called peptide 15; PD 15-Fc) [PD 15]; 410

Attention now turns to another entry.
Look up and state reported Kd for VTPLLKFRALSS (12-mer from the Ph.D.-12 phage library; The peptide was cloned into pFUSE-hIgG1-Fc2 and expressed as the PD 21-Fc fusion; also called peptide 21; PD 21-Fc) [PD 21]
1
